Sourced from ChEMBL document CHEMBL4689842

Test system: Fibroblast
Assay: Multiplex assay against human fibroblast
Type: toxicity, cell-based
Details: 24 h, 10 µM, compound concentration 10 uM, replicate 2
Population Pyknosed Nuclei (%) vs 20%: less than gives met; not less than gives not met.

See these solved cases before continuing.
Cc1nc(-c2ccc(-c3ccc(C(=O)N4CCc5cc6c(cc54)C4(CCN(C)CC4)CO6)cc3)c(C)c2)no1 = not met
COc1ncc(-c2ccc3nccc(-c4ccnnc4)c3c2)cc1NS(=O)(=O)c1ccc(F)cc1F = not met

Check if Population Pyknosed Nuclei (%) falls below 20% for `C=CC(=O)Nc1ccc2ncnc(Nc3ccc(OCc4cccc(F)c4)c(Cl)c3)c2c1.Cc1ccc(S(=O)(=O)O)cc1` .
met

Could you please tell me whether Population Pyknosed Nuclei (%) recorded for `CNc1nc(NCc2ccc(NS(C)(=O)=O)cc2Cl)cc(-c2ccccn2)n1` is less than 20%?
met

Is Population Pyknosed Nuclei (%) of `CN(C)CC#Cc1ccc(OCCCc2sc(N3CCc4cccc(C(=O)Nc5nc6ccccc6s5)c4C3)nc2C(=O)O)c(F)c1` strictly below 20%?
not met

is_below(Population Pyknosed Nuclei (%), 20%) for `Cc1c(-c2ccc(O)cc2)n(Cc2ccc(OCCN3CCCCCC3)cc2)c2ccc(O)cc12` ?
not met

Say whether its Population Pyknosed Nuclei (%) is strictly beneath 20%. Entry: `CN(C)C(=O)/C(C#N)=C/c1ccc(-c2nc3cnc4[nH]ccc4c3n2C2CCCCC2)o1`
met

Is the reported Population Pyknosed Nuclei (%) for CN1CCCC(n2nc(Cc3ccc(Cl)cc3)c3ccccc3c2=O)CC1.Cl (stereo unspecified) [AZELASTINE HYDROCHLORIDE] strictly below 20%?
not met
